Reference for the values: patent US20220323614A1

Test: mouse pharmacokinetics of Indi-199 by IV, IP and PO
Format: in vivo
Conditions: in vivo; mouse, 20 mg/kg IP, 4 mg/mL in PBS; terminal elimination phase inadequately defined; read-out: T½ (converted)
Where a SMILES comes first, the peptide text is derived from it. Bridges are numbered along the chain shown (N, C = ends). Triazole bridges read from a SMILES are 1,4-linked. [ ]: non-standard residue; d: D form. The star is where a group is joined. dPhe(4-Cl) = N[C@H](Cc1ccc(Cl)cc1)C(=O)O; Lys(N3) = [N-]=[N+]=NCCCC[C@H](N)C(=O)O; Morpholinoacetyl = O=C(CN1CCOCC1)*; Palmitoyl = CCCCCCCCCCCCCCCC(=O)*; Pra = C#CC[C@H](N)C(=O)O
Recorded Endpoint: half-life
Note: state the figure and append the unit.

Please report the recorded half-life for CCCCCCCCCCCCCCCC(=O)NCCCC[C@H](NC(=O)[C@@H]1CCCCn2cc(nn2)C[C@H](NC(=O)CN2CCOCC2)C(=O)N[C@H](Cc2c[nH]c3ccccc23)C(=O)N[C@H](CCCCN)C(=O)N[C@H](Cc2ccc(O)cc2)C(=O)N[C@H](Cc2ccc(Cl)cc2)C(=O)N1)C(N)=O [Indi-199] (Morpholinoacetyl-[Pra][dW][dK][dY][dPhe(4-Cl)][Lys(N3)]K(Palmitoyl)-NH2; triazole 1-6) .
13.4 h

----------
Assay: mouse pharmacokinetics of Indi-199 by IV, IP and PO
Format: in vivo
Details: in vivo; mouse, 50 mg/kg PO, 5 mg/mL in PBS
Where a SMILES comes first, the peptide text is derived from it. Bridges are numbered along the chain shown (N, C = ends). Triazole bridges read from a SMILES are 1,4-linked. [ ]: non-standard residue; d: D form. The star is where a group is joined. dPhe(4-Cl) = N[C@H](Cc1ccc(Cl)cc1)C(=O)O; Lys(N3) = [N-]=[N+]=NCCCC[C@H](N)C(=O)O; Morpholinoacetyl = O=C(CN1CCOCC1)*; Palmitoyl = CCCCCCCCCCCCCCCC(=O)*; Pra = C#CC[C@H](N)C(=O)O
Recorded Endpoint: bioavailability (%)
Enter your answer as a number in %; do not include the unit.

Please report the recorded bioavailability for CCCCCCCCCCCCCCCC(=O)NCCCC[C@H](NC(=O)[C@@H]1CCCCn2cc(nn2)C[C@H](NC(=O)CN2CCOCC2)C(=O)N[C@H](Cc2c[nH]c3ccccc23)C(=O)N[C@H](CCCCN)C(=O)N[C@H](Cc2ccc(O)cc2)C(=O)N[C@H](Cc2ccc(Cl)cc2)C(=O)N1)C(N)=O [Indi-199] (Morpholinoacetyl-[Pra][dW][dK][dY][dPhe(4-Cl)][Lys(N3)]K(Palmitoyl)-NH2; triazole 1-6) .
0.018

----------
Test: mouse pharmacokinetics of Indi-199 by IV, IP and PO
Format: in vivo
Settings: in vivo; mouse, 20 mg/kg IP, 4 mg/mL in PBS
Source text: FIG. 14 is a graph of mouse pharmacokinetics of Indi-199, an example of the disclosed cyclic peptides, by different administration routes (IV, IP, and PO).
Where a SMILES comes first, the peptide text is derived from it. Bridges are numbered along the chain shown (N, C = ends). Triazole bridges read from a SMILES are 1,4-linked. [ ]: non-standard residue; d: D form. The star is where a group is joined. dPhe(4-Cl) = N[C@H](Cc1ccc(Cl)cc1)C(=O)O; Lys(N3) = [N-]=[N+]=NCCCC[C@H](N)C(=O)O; Morpholinoacetyl = O=C(CN1CCOCC1)*; Palmitoyl = CCCCCCCCCCCCCCCC(=O)*; Pra = C#CC[C@H](N)C(=O)O
Recorded Endpoint: AUC(0-inf) (µM·h)
Enter your answer as a number in µM·h; do not include the unit.

Please report the recorded AUC(0-inf) for CCCCCCCCCCCCCCCC(=O)NCCCC[C@H](NC(=O)[C@@H]1CCCCn2cc(nn2)C[C@H](NC(=O)CN2CCOCC2)C(=O)N[C@H](Cc2c[nH]c3ccccc23)C(=O)N[C@H](CCCCN)C(=O)N[C@H](Cc2ccc(O)cc2)C(=O)N[C@H](Cc2ccc(Cl)cc2)C(=O)N1)C(N)=O [Indi-199] (Morpholinoacetyl-[Pra][dW][dK][dY][dPhe(4-Cl)][Lys(N3)]K(Palmitoyl)-NH2; triazole 1-6) .
316
